Measured optical density values are reported for all entries that follow.
target: T1, Human ACVR2A (human, UniProt P27037 20-135, limits assumed); experiment: ELISA; further: test concentration or dose not given here
T1 construct: also called activin receptor, type II A
T1 sequence (P27037 20-135 limits assumed): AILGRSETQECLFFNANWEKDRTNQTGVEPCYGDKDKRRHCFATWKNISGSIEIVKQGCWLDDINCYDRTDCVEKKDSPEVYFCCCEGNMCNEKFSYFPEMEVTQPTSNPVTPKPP
Record the value in OD, omitting the unit from your answer.

binder	measurement
369_H08 (antibody, V domains shown, VH/VL only) VH: EVQLLESGGGLVQPGGSLRLSCAASGFTFSSYSMNWVRQAPGKGLEWVAGINYNSGYKSYADSVKGRFTISRDNSKNTLYLQMNSLRAEDTAVYYCARGATWHDTHLDYWGQGTLVTVSS VL: DIQMTQSPSSLSASVGDRVTITCRASQSILSYVNWYQQKPGKAPKLVIYAATSLASGVPSRFSGSGSGTDFTLTISSLQPEDFATYYCQQSYESPLTFGGGTKVEIK	3.16

The record that follows has no optical density shown yet.
Record request: optical density value, item 372_E08 (antibody, V domains shown, VH/VL only) VH: EVQLLESGGGLVQPGGSLRLSCAASGFTFSDYSMNWVRQAPGKGLEWVSNINYNGGYTSYADSVKGRFTISRDNSKNTLYLQMNSLRAEDTAVYYCARGATWHDTHLDYWGQGTLVTVSS VL: DIQMTQSPSSLSASVGDRVTITCRASQSIITYLNWYQQKPGKAPKLLIYAATSRASGVPSRFSGSGSGTDFTLTISSLQPEDFATYYCQQSYNLPLTFGGGTKVEIK
2.56
